Source of measurements: patent US11434205B2

Tested on: rats
run_description: Pharmacological characteristics at equivalent doses (2×ED50) in rats
condition_label: 2×ED50, tail vein
observation_type: Adverse reactions: Restlessness (incidence)

Specify Adverse reactions: Restlessness (incidence) for "C#CC(C)(C)OC(=O)c1c(F)ncn1[C@H](C)c1ccccc1" and stop.
(2/8), Red

Specify Adverse reactions: Restlessness (incidence) for "C[C@H](c1ccccc1)n1c(Cl)nc(Cl)c1C(=O)OC1COC1" and stop.
(2/8), Red

Specify Adverse reactions: Restlessness (incidence) for "CCC1(COC(=O)c2cncn2[C@H](C)c2ccccc2)COC1" and stop.
1/8

* * *

System: rats
run_description: Pharmacological characteristics at equivalent doses (2×ED50) in rats
condition_label: 2×ED50, tail vein, time of LORR
Would you mind classing the entries by Onset time? Ranges: lowest = under 0.2 min, middle = from 0.2 min up to 0.4 min, highest = 0.4 min and over

Field: class (Onset time) — entry: C=CC#CC(C)(C)OC(=O)c1c(F)ncn1[C@H](C)c1ccccc1 [Compound E21]
highest

Field: class (Onset time) — entry: C[C@H](c1ccccc1)n1cnc(F)c1C(=O)OC1COC1 [Compound E10]
middle

Field: class (Onset time) — entry: C[C@H](c1ccccc1)n1cncc1C(=O)OC1CCC1 [Compound A17]
lowest

Field: class (Onset time) — entry: C=C=CC1(OC(=O)c2cncn2[C@H](C)c2ccccc2)CSC1 [Compound D28]
middle

Field: class (Onset time) — entry: C#CC1(OC(=O)c2cncn2[C@H](C)c2ccccc2)COC1 [Compound D3]
lowest

Please examine the following record next.
Field: class (Onset time) — entry: C[C@H](c1ccccc1)n1cncc1C(=O)OC1(C)CCC1=O (stereo partly drawn) [Compound A13]
highest

* * *

Test system: rats
run_description: Pharmacological characteristics at equivalent doses (2×ED50) in rats
condition_label: 2×ED50, tail vein, DMSO solution (DMSO alone 10/10)
observation_type: Adverse reactions: Red urine (incidence)

Previously resolved entries follow.
Specify Adverse reactions: Red urine (incidence) for C#CC1(OC(=O)c2cncn2[C@H](C)c2ccccc2)COC1 [Compound D3] and stop.
urine (8/8)

Specify Adverse reactions: Red urine (incidence) for C[C@H](c1ccccc1)n1cnc(F)c1C(=O)OC1CC1 [Compound E34] and stop.
(8/8)

Specify Adverse reactions: Red urine (incidence) for COCC1(COC(=O)c2cncn2[C@H](C)c2ccccc2)CCC1 [Compound A11] and stop.
Red urine (8/8)

Specify Adverse reactions: Red urine (incidence) for C=CC(CC)(CC)OC(=O)c1cncn1[C@H](C)c1ccccc1 [Compound D24] and stop.
Red urine (8/8)

List Adverse reactions: Red urine (incidence) for every entry below, keeping the order given.
1. C#CC(C)(C)OC(=O)c1cncn1[C@H](C)c1ccccc1 [Compound D15]
2. C=C=CC1(OC(=O)c2cncn2[C@H](C)c2ccccc2)CCCCC1 [Compound D43]
3. C#CC1(OC(=O)c2cncn2[C@H](C)c2ccccc2)CCC1 [Compound D1]
4. C#CC1(OC(=O)c2c(Cl)nc(Cl)n2[C@H](C)c2ccccc2)COC1 [Compound E148]

(7/8)
Red urine (8/8)
Red urine (8/8)
urine (8/8)

Specify Adverse reactions: Red urine (incidence) for C/C=C/C1(OC(=O)c2cncn2[C@H](C)c2ccccc2)COC1 [Compound D42] and stop.
Red urine (8/8)

* * *

Field: recovery time of the test animals' righting reflex. Provide a value for each of the compounds that follow.
Tested on: rats
Format: in vivo, rat
condition_label: rats of the MAP/HR figures, 2×ED50, tail vein; same value in min
Answers are plain numbers, in min.

Previously resolved entries follow.
Specify recovery time of the test animals' righting reflex for CC(OC(=O)c1cncn1[C@H](C)c1ccccc1)C1CO1 (stereo partly drawn) [Compound B20] and stop.
2.68

Specify recovery time of the test animals' righting reflex for C=C=CC1(OC(=O)c2cncn2[C@H](C)c2ccccc2)CCOCC1 [Compound D34] and stop.
2.83

Specify recovery time of the test animals' righting reflex for C[C@H](c1ccccc1)n1cncc1C(=O)SCC1CCC1 [Compound A27] and stop.
2.10

List recovery time of the test animals' righting reflex for every entry below, keeping the order given.
1. C=CC#CC(C)(C)OC(=O)c1cncn1[C@H](C)c1ccccc1 [Compound D37]
2. C[C@H](c1ccccc1)n1cncc1C(=O)OCC1CCC1 [Compound A8]
3. C[C@H](c1ccccc1)n1cncc1C(=O)OC(C)(C)C [Compound C18]
4. C[C@H](c1ccccc1)n1cnc(F)c1C(=O)OC1CSC1 [Compound E11]
5. C#CC(C)(C)OC(=O)c1c(F)ncn1[C@H](C)c1ccccc1 [Compound E25]

2.75
2.15
1.92
1.55
2.23

Specify recovery time of the test animals' righting reflex for CCCC(C)(C)OC(=O)c1c(F)ncn1[C@H](C)c1ccccc1 [Compound E29] and stop.
2.75

* * *

Test system: rats
Assay type: in vivo, rat
condition_label: rats of the MAP/HR figures, 2×ED50, tail vein; same value in min
Label 1.0 when recovery time of the test animals' righting reflex is at or above 4 min; otherwise label 0.0.

Could you verify whether the entry "C/C(OC(=O)c1c(Cl)nc(Cl)n1[C@H](C)c1ccccc1)=C1\CCCC1=O" shows recovery time of the test animals' righting reflex of no less than 4 min?
0.0

Could you verify whether the entry "COCC1(COC(=O)c2c(Cl)ncn2[C@H](C)c2ccccc2)CCC1" shows recovery time of the test animals' righting reflex of no less than 4 min?
1.0

Could you verify whether the entry "CC(=O)CCSC(=O)c1cncn1[C@H](C)c1ccccc1" shows recovery time of the test animals' righting reflex of no less than 4 min?
0.0

Please examine the following record next.
Could you verify whether the entry "C=CC1(OC(=O)c2cncn2[C@H](C)c2ccccc2)COC1" shows recovery time of the test animals' righting reflex of no less than 4 min?
1.0

* * *

System: rats
condition_label: continuous tail vein infusion at 2×MIR, LORR maintained 1 hour, Table D4
observation_type: Types and incidence of adverse reactions

Specify Types and incidence of adverse reactions for "C[C@H](c1ccccc1)n1cncc1C(=O)OC(C)(C)C#CC#CC(C)(C)O" and stop.
Tremor (5/6)

Specify Types and incidence of adverse reactions for C#CC(C)OC(=O)c1cncn1[C@H](C)c1ccccc1 (stereo partly drawn) and stop.
Tremor (5/6)

Specify Types and incidence of adverse reactions for "CC#CC1(OC(=O)c2cncn2[C@H](C)c2ccccc2)CCCCC1" and stop.
Tremor (5/6)

* * *

System: rats
run_description: Pharmacological characteristics at equivalent doses (2×ED50) in rats
condition_label: 2×ED50, tail vein, DMSO solution (DMSO alone 10/10)
observation_type: Adverse reactions: Red urine (incidence)

Previously resolved entries follow.
Specify Adverse reactions: Red urine (incidence) for C=C=CC1(SC(=O)c2cncn2[C@H](C)c2ccccc2)COC1 [Compound D33] and stop.
Red urine (8/8)

Specify Adverse reactions: Red urine (incidence) for CC#CCOC(=O)c1cncn1[C@H](C)c1ccccc1 [Compound D18] and stop.
urine (8/8)

Specify Adverse reactions: Red urine (incidence) for CC#CC1(OC(=O)c2cncn2[C@H](C)c2ccccc2)COC1 [Compound D39] and stop.
urine (8/8)

Specify Adverse reactions: Red urine (incidence) for CC(=O)CCOC(=O)c1cncn1[C@H](C)c1ccccc1 [Compound C7] and stop.
Red urine (8/8)

New cases:
Specify Adverse reactions: Red urine (incidence) for C[C@H](c1ccccc1)n1cnc(F)c1C(=O)OC1COC1 [Compound E10] and stop.
(8/8)

* * *

System: rats
condition_label: continuous tail vein infusion at 2×MIR, LORR maintained 1 hour, Table C4
Protocol: Pharmacological Effects of the Compounds on Continuous Infusion in Rats Adult male Sprague-Dawley rats with body weight ranging from 250 to 300 gm were selected for continuous infusion test. […] Time to recovery of righting reflex from stopping infusion, and time to fully awake from stopping infusion were recorded.
observation_type: Types and incidence of adverse reactions

Specify Types and incidence of adverse reactions for "C[C@H](c1ccccc1)n1cncc1C(=O)OC(C)(C)C" and stop.
Tremor (1/6)

Specify Types and incidence of adverse reactions for "CSCOC(=O)c1cncn1[C@H](C)c1ccccc1" and stop.
Tremor (2/6)

Specify Types and incidence of adverse reactions for "CCC(CC)OC(=O)c1cncn1[C@H](C)c1ccccc1" and stop.
Tremor (1/6)

Specify Types and incidence of adverse reactions for "CSCCOC(=O)c1cncn1[C@H](C)c1ccccc1" and stop.
Tremor (2/6)

* * *

Test system: secretion of corticosterone, H295R cell line
run_description: cells
Type: cell-based
condition_label: H295R; Table B3
Experimental: The Effects of the Compounds on Adrenocortical Function In Vitro Test Then secretion of the cortisol and corticosterone in the supernatant, was measured using HPLC-MS/MS method to determine whether the compounds of the present invention had adrenotoxic potential.
observation_type: Corticosterone as an indicator to determine the presence of inhibition
Numbers only.

Specify Corticosterone as an indicator to determine the presence of inhibition for C[C@H](c1ccccc1)n1cncc1C(=O)SCC1COC1 [Compound B29] and stop.
0

Specify Corticosterone as an indicator to determine the presence of inhibition for COC(=O)C1(OC(=O)c2cncn2[C@H](C)c2ccccc2)CC1 [CPMM, cyclopropyl methoxycarbonyl methylate, reference compound] and stop.
1

Specify Corticosterone as an indicator to determine the presence of inhibition for CCCC1(COC(=O)c2cncn2[C@H](C)c2ccccc2)COC1 [Compound B10] and stop.
0

Specify Corticosterone as an indicator to determine the presence of inhibition for C[C@H](c1ccccc1)n1cncc1C(=O)OC(C)(C)C1OC1(C)C (some centres unmarked) [Compound B25] and stop.
0

Specify Corticosterone as an indicator to determine the presence of inhibition for CCC1(COC(=O)c2cncn2[C@H](C)c2ccccc2)COC1 [Compound B9] and stop.
0

Specify Corticosterone as an indicator to determine the presence of inhibition for CCCC1(OC(=O)c2cncn2[C@H](C)c2ccccc2)COC1 [Compound B19] and stop.
0

List Corticosterone as an indicator to determine the presence of inhibition for every entry below, keeping the order given.
1. C[C@H](c1ccccc1)n1cncc1C(=O)O [Etomidate acid, etomidate acid, reference compound]
2. CCOC(=O)c1cncn1[C@H](C)c1ccccc1 [Etomidate, reference compound]
3. CCC1(OC(=O)c2cncn2[C@H](C)c2ccccc2)COC1 [Compound B18]

1. 0
2. 2
3. 0

List Corticosterone as an indicator to determine the presence of inhibition for every entry below, keeping the order given.
1. CC(OC(=O)c1cncn1[C@H](C)c1ccccc1)C1CO1 (some centres unmarked) [Compound B20]
2. C[C@H](c1ccccc1)n1cncc1C(=O)OCC1(C)COC1 [Compound B5]

1. 0
2. 0
